- Assay target: Bcl-xL, Q07817
- Sequence (Q07817 1-209): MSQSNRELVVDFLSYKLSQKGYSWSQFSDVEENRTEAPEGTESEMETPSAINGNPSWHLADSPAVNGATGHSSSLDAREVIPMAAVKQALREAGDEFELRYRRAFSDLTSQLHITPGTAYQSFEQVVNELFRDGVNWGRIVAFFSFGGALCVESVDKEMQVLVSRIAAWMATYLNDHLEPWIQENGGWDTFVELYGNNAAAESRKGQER
- Measurement notes: peptide SPOT array, c-Myc-tagged receptor at 1 uM or 100 nM, anti-c-Myc-Cy3
Friendly reminder: SPOT signal as a fraction of Bim BH3's signal on the same receptor and array below 0.03 is TRUE, at or above is FALSE.

CALIAGATLHDAWLGDSQVILVQQGQ [PPM1F]    TRUE
AICIEEIGVWDKMYSDAFLNDSYLKY [STAG1]    FALSE
GERLRQSGERLRQSGERFKKSISNAA [MURC]    FALSE
CALLGSTGERDCLAGDSAGGNLCFTV [LIPE]    TRUE
DDMFEPHSWNLKELSDDCFQQWGVRP [PRCP]    FALSE

Query :: Record CDLLGAKGKDDLYIGDHIFGDILKSK [NT5C2] : is its SPOT signal as a fraction of Bim BH3's signal on the same receptor and array strictly below 0.03?
Result :: TRUE

Query :: Record TRRSMVFARHDREVGDEFRSRHLNST [POFUT2] : is its SPOT signal as a fraction of Bim BH3's signal on the same receptor and array strictly below 0.03?
Result :: FALSE

Query :: Record EVLAGPLAQRLSHILEDVGRLVKKSR [ARHGAP4] : is its SPOT signal as a fraction of Bim BH3's signal on the same receptor and array strictly below 0.03?
Result :: FALSE
